Hey, just so you know, these numbers are from the Immune Epitope Database (IEDB).

target of assay: HLA-A*02:03
procedure text: IEDB peptide-MHC binding, purified MHC/competitive/radioactivity; bounds were set here for any values at or beyond the usual limits of such assays
condition info: source organism: Vaccinia virus WR
pIC50: −log10 of the molar value.
Binary classification by pIC50, with 7 as an inclusive lower bound for MET; all other cases are NOT MET.

residue_string=NLRCHSAHV class=MET

Could you please find out whether `NMWREILSNT` has pIC50 that meets 7 or exceeds it?
MET

Could you please find out whether `RIASILSLET` has pIC50 that meets 7 or exceeds it?
NOT MET

Could you please find out whether `QLFKYVPSA` has pIC50 that meets 7 or exceeds it?
MET

Could you please find out whether `FISSFLLPLT` has pIC50 that meets 7 or exceeds it?
MET

Could you please find out whether `TLFYCDERDA` has pIC50 that meets 7 or exceeds it?
NOT MET

Could you please find out whether `FVDTMSIYI` has pIC50 that meets 7 or exceeds it?
NOT MET

Could you please find out whether `VLQQNNSFII` has pIC50 that meets 7 or exceeds it?
NOT MET

Could you please find out whether `VQYRILPMII` has pIC50 that meets 7 or exceeds it?
NOT MET

Could you please find out whether `RLYNSLKRFT` has pIC50 that meets 7 or exceeds it?
NOT MET

Could you please find out whether `FVKKMLPKII` has pIC50 that meets 7 or exceeds it?
NOT MET

Could you please find out whether `YLRGHTESI` has pIC50 that meets 7 or exceeds it?
MET

Could you please find out whether `RILSEKRKDT` has pIC50 that meets 7 or exceeds it?
NOT MET
